Ref: patent US20230017045A1

Test system: test plant species
ASSAY_REMARKS: Post-emergent herbicidal activity test (greenhouse, foliar spray, visual growth reduction)
Type: in vivo
CONDITION: post-emergence, 336 h, crabgrass (Digitaria sanguinalis), 14 Days After Application, 140 g ai/ha, read-out: Visual Growth Reduction (%) DIGSA
ASSAY_ENDPOINT: pest or weed control at 140 g/ha

Problem: Name the recorded pest or weed control at 140 g/ha of the compound listed here: COC(=O)c1nc(-c2cc3c(cc2F)OC(F)(F)O3)c(OC)cc1Cl
Result: 0 to 29%

Problem: Name the recorded pest or weed control at 140 g/ha of the compound listed here: O=C(O)c1nc(-c2ccc(C(F)(F)F)cc2Cl)ccc1[N+](=O)[O-]
Result: 30 to 44%

Problem: Name the recorded pest or weed control at 140 g/ha of the compound listed here: COC(=O)c1nc(-c2ccc(Cl)c(C)c2F)ccc1Cl
Result: 0 to 29%

###

Task for the reader: assign each of the following molecules its reported pest or weed control at 140 g/ha.
System: test plant species
ASSAY_REMARKS: Post-emergent herbicidal activity test (greenhouse, foliar spray, visual growth reduction)
Assay type: in vivo
CONDITION: post-emergence, 336 h, SETFA: giant foxtail (Setaria faberi), 140 g ai/ha, 14 days after application, read-out: Visual Growth Reduction (%) 14 Days After Application, SETFA

Problem: Name the recorded pest or weed control at 140 g/ha of the molecule listed here: COC(=O)c1nc(-c2ccc(C(F)(F)F)c(C)c2Cl)ccc1Cl
Result: 0 to 29%

Problem: Name the recorded pest or weed control at 140 g/ha of the molecule listed here: COC(=O)c1nc(-c2cc(Br)c(C(F)(F)F)cc2Cl)c(F)cc1Cl
Result: 0 to 29%

Problem: Name the recorded pest or weed control at 140 g/ha of the molecule listed here: COC(=O)c1nc(-c2cc(F)c3c(c2)OC(F)(F)O3)ccc1Cl
Result: 0 to 29%

Problem: Name the recorded pest or weed control at 140 g/ha of the molecule listed here: COC(=O)c1nc(-c2ccc(Cl)c3ccccc23)c(F)cc1Cl
Result: 0 to 29%

Problem: Name the recorded pest or weed control at 140 g/ha of the molecule listed here: COC(=O)c1nc(-c2ccc(SC(F)(F)F)cc2)ccc1Cl
Result: 0 to 29%

Problem: Name the recorded pest or weed control at 140 g/ha of the molecule listed here: COC(=O)c1nc(-c2cc3ncsc3cc2F)c(F)cc1Cl
Result: 0 to 29%

Problem: Name the recorded pest or weed control at 140 g/ha of the molecule listed here: O=C(O)c1nc(-c2ccnc(Cl)c2Cl)ccc1Cl
Result: 0 to 29%

Problem: Name the recorded pest or weed control at 140 g/ha of the molecule listed here: O=C(O)c1nc(-c2ncc(Cl)c(C(F)F)c2Cl)ccc1Cl
Result: 75 to 84%

Problem: Name the recorded pest or weed control at 140 g/ha of the molecule listed here: COC(=O)c1nc(-c2ccc(Cl)c(C(C)F)c2Cl)ccc1Cl (stereo not shown)
Result: 0 to 29%

Problem: Name the recorded pest or weed control at 140 g/ha of the molecule listed here: COC(=O)c1nc(-c2cc(N)c(C(F)(F)F)cc2Cl)ccc1Cl
Result: 45 to 59%

###

Tested on: test plant species
ASSAY_REMARKS: Post-emergent herbicidal activity test (greenhouse, foliar spray, visual growth reduction)
Type: in vivo
CONDITION: post-emergence, 336 h, KCHSC: kochia (Bassia scoparia), 140 g ai/ha, 14 days after application, read-out: Visual Growth Reduction (%) 14 Days After Application, KCHSC
Task for the reader: assign each of the following compounds its reported pest or weed control at 140 g/ha.

Problem: Name the recorded pest or weed control at 140 g/ha of the compound listed here: COC(=O)c1nc(-c2ccc3ccccc3c2)c(F)cc1Cl
Result: 0 to 29%

Problem: Name the recorded pest or weed control at 140 g/ha of the compound listed here: C=C(C)COC(=O)c1nc(-c2ccc(C(F)(F)F)cc2Cl)ccc1Cl
Result: 95 to 100%

Problem: Name the recorded pest or weed control at 140 g/ha of the compound listed here: COC(=O)c1nc(-c2ccc(C(F)(F)F)c(Br)c2Cl)c(F)cc1Cl
Result: 60 to 74%

Problem: Name the recorded pest or weed control at 140 g/ha of the compound listed here: COc1cc(C(F)(F)F)ccc1-c1nc(C(=O)OCc2ccccc2)c(Cl)cc1F
Result: 75 to 84%

Problem: Name the recorded pest or weed control at 140 g/ha of the compound listed here: COC(=O)c1nc(-c2cc(C)c(C)cc2Cl)ccc1Cl
Result: 0 to 29%

Problem: Name the recorded pest or weed control at 140 g/ha of the compound listed here: COC(=O)c1nc(-c2ccc(F)cc2)c(F)cc1Cl
Result: 0 to 29%

Problem: Name the recorded pest or weed control at 140 g/ha of the compound listed here: COC(=O)c1nc(-c2ccc(C(F)(F)F)cc2F)ncc1Cl
Result: 0 to 29%

Problem: Name the recorded pest or weed control at 140 g/ha of the compound listed here: COCC(F)(F)c1ccc(-c2ccc(Cl)c(C(=O)O)n2)c(Cl)c1
Result: 60 to 74%

Problem: Name the recorded pest or weed control at 140 g/ha of the compound listed here: COC(=O)c1nc(-c2ccc3c(c2)OC(F)(F)O3)c(F)cc1Cl
Result: 0 to 29%

Problem: Name the recorded pest or weed control at 140 g/ha of the compound listed here: COC(=O)c1nc(-c2ccc(C(F)(F)F)c(C)c2)ccc1Cl
Result: 0 to 29%

Problem: Name the recorded pest or weed control at 140 g/ha of the compound listed here: COC(=O)c1nc(-c2ccc(Cl)c(C(F)F)c2F)ccc1Cl
Result: 0 to 29%

Problem: Name the recorded pest or weed control at 140 g/ha of the compound listed here: CC(F)(F)c1ccc(-c2ccc(Cl)c(C(=O)O)n2)c(Cl)c1
Result: 95 to 100%

Problem: Name the recorded pest or weed control at 140 g/ha of the compound listed here: O=C(O)c1nc(-c2ccc(Cl)c3c2OC(F)(F)O3)ccc1Cl
Result: 0 to 29%

Problem: Name the recorded pest or weed control at 140 g/ha of the compound listed here: COC(=O)c1nc(-c2cc3nonc3cc2F)c(F)cc1Cl
Result: 0 to 29%

Problem: Name the recorded pest or weed control at 140 g/ha of the compound listed here: COC(=O)c1nc(-c2cc3c(cc2F)OC(F)(F)O3)c(Cl)cc1Cl
Result: 0 to 29%

Problem: Name the recorded pest or weed control at 140 g/ha of the compound listed here: COC(=O)c1nc(-c2ccc(N)cc2)c(F)cc1Cl
Result: 0 to 29%

Problem: Name the recorded pest or weed control at 140 g/ha of the compound listed here: COC(=O)c1nc(-c2cc(F)c(C(F)(F)F)cc2F)ccc1Cl
Result: 30 to 44%

Problem: Name the recorded pest or weed control at 140 g/ha of the compound listed here: Cc1c(C(F)(F)F)ccc(-c2ccc(Cl)c(C(=O)O)n2)c1F
Result: 0 to 29%

Problem: Name the recorded pest or weed control at 140 g/ha of the compound listed here: O=C(O)c1nc(-c2ccc(C(F)(F)F)cc2Cl)ccc1[N+](=O)[O-]
Result: 0 to 29%

Problem: Name the recorded pest or weed control at 140 g/ha of the compound listed here: COC(=O)c1nc(-c2cc(OC)c3c(c2)OCO3)c(F)cc1Cl
Result: 0 to 29%

Problem: Name the recorded pest or weed control at 140 g/ha of the compound listed here: COC(=O)c1nc(-c2ccc(C(F)(F)F)cc2Cl)ccc1Cl
Result: 60 to 74%

Problem: Name the recorded pest or weed control at 140 g/ha of the compound listed here: COCC(F)(F)c1ccc(-c2ccc(Cl)c(C(=O)OC)n2)c(Cl)c1
Result: 45 to 59%

Problem: Name the recorded pest or weed control at 140 g/ha of the compound listed here: COC(=O)c1nc(-c2ccc(C(F)(F)F)c(N)c2)ccc1Cl
Result: 0 to 29%

Problem: Name the recorded pest or weed control at 140 g/ha of the compound listed here: COC(=O)c1nc(-c2ccc(C(F)(F)F)cc2OC)c(F)cc1Cl
Result: 95 to 100%

Problem: Name the recorded pest or weed control at 140 g/ha of the compound listed here: COC(=O)c1nc(-c2cc(F)c(C(F)(F)F)cc2Cl)ccc1Cl
Result: 75 to 84%

Problem: Name the recorded pest or weed control at 140 g/ha of the compound listed here: COC(=O)c1nc(-c2ccc(F)cc2F)ccc1Cl
Result: 0 to 29%

Problem: Name the recorded pest or weed control at 140 g/ha of the compound listed here: COC(=O)c1nc(-c2ccc(SC(F)(F)F)cc2)c(F)cc1Cl
Result: 0 to 29%

Problem: Name the recorded pest or weed control at 140 g/ha of the compound listed here: COC(=O)c1nc(-c2ccc(SC)cc2)c(F)cc1Cl
Result: 0 to 29%

Problem: Name the recorded pest or weed control at 140 g/ha of the compound listed here: O=C(O)c1nc(-c2ncc(Cl)cc2Cl)ccc1Cl
Result: 60 to 74%

Problem: Name the recorded pest or weed control at 140 g/ha of the compound listed here: C#Cc1cc(C(F)(F)F)cc(Cl)c1-c1ccc(Cl)c(C(=O)OC)n1
Result: 0 to 29%

Problem: Name the recorded pest or weed control at 140 g/ha of the compound listed here: O=C(O)c1nc(-c2c(Cl)cc(C(F)(F)F)cc2[N+](=O)[O-])ccc1Cl
Result: 45 to 59%

Problem: Name the recorded pest or weed control at 140 g/ha of the compound listed here: COC(=O)c1nc(-c2ccc(C(F)(F)F)c(C)c2Cl)c(F)cc1Cl
Result: 85 to 94%

Problem: Name the recorded pest or weed control at 140 g/ha of the compound listed here: COC(=O)c1nc(-c2ccc(C3(C#N)CC3)cc2Cl)ccc1Cl
Result: 75 to 84%

Problem: Name the recorded pest or weed control at 140 g/ha of the compound listed here: COC(=O)c1nc(-c2cc(F)c(C(F)(F)F)cc2OC)ccc1Cl
Result: 30 to 44%

Problem: Name the recorded pest or weed control at 140 g/ha of the compound listed here: COC(=O)c1nc(-c2ccc(C(F)(F)C#N)cc2Cl)ccc1Cl
Result: 0 to 29%

Problem: Name the recorded pest or weed control at 140 g/ha of the compound listed here: Cc1cnc(-c2ccc(Cl)c(C(=O)O)n2)c(F)c1
Result: 0 to 29%

Problem: Name the recorded pest or weed control at 140 g/ha of the compound listed here: COC(=O)c1nc(-c2ccccc2)c(F)cc1Cl
Result: 0 to 29%

Problem: Name the recorded pest or weed control at 140 g/ha of the compound listed here: COC(=O)c1nc(-c2ccc(C#N)cc2F)c(F)cc1Cl
Result: 45 to 59%

Problem: Name the recorded pest or weed control at 140 g/ha of the compound listed here: COc1cc2c(cc1-c1nc(C(=O)O)c(Cl)cc1F)OC(F)(F)O2
Result: 45 to 59%

Problem: Name the recorded pest or weed control at 140 g/ha of the compound listed here: COC(=O)c1nc(-c2ccc3[nH]ccc3c2)c(F)cc1Cl
Result: 0 to 29%

Problem: Name the recorded pest or weed control at 140 g/ha of the compound listed here: COC(=O)c1nc(-c2ccc(C(F)(F)F)cc2Cl)c(Cl)cc1Cl
Result: 75 to 84%
